// provenance: PubChem BioAssay (NCI)

experiment: NCI Yeast Anticancer Drug Screen. Data for the rad50 strain (AID 155);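 also: 0% = growth of vehicle-only cultures of the same strain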; conditions: S. cerevisiae rad50 strain growth inhibition; at 100.0 µM; hits give high values
The panel holds about 79,000 compounds, 15% with a hit somewhere; the sample as a whole holds those more often.
Each record here notes measured growth inhibition.
The reply should contain only the number, in %.

# annotated cases, reported growth inhibition shown
- compound: "O=c1[nH]cc(F)c(=O)[nH]1"
  u: "%"
  growth inhibition: 91
- compound: "Nc1ccc2ncc(Nc3ccc(Cl)c(Cl)c3)nc2c1"
  u: "%"
  growth inhibition: 96

Q: Item "O=c1oc(C(C(F)(F)F)C(F)(F)F)nc2ccccc12" has what recorded growth inhibition?
A: 29

Q: Item "O=Cn1c2ccccc2c2ccccc21" has what recorded growth inhibition?
A: 82
